# target_system: T1, Human Nectin-4 (human, UniProt Q96NY8 32-349, limits assumed)
# T1 construct: Protein immobilised on the SPR chip; also called target protein
# T1 sequence: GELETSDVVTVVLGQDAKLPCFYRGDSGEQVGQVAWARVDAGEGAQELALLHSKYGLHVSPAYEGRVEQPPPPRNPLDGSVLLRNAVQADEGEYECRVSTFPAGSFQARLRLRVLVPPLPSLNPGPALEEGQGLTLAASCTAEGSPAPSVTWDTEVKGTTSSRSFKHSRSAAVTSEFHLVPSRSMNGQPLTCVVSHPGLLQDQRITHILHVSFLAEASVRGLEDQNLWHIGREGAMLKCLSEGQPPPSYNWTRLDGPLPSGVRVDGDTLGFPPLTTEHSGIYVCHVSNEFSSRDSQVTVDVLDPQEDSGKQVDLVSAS
# test_details: Table 2B (DELFIA or SPR)
pKd: −log10 of the molar value. Bridges are numbered along the chain shown (N, C = ends). Primed or numbered codes have the meaning given here. Where no end group is shown, it is not given here. The star is where a group is joined. Biotin = O=C1N[C@H]2[C@H](CS[C@H]2CCCCC(=O)*)N1; PEG4″ = 4(ethylene glycol)
quantity_kind: pKd

>>> numeric_readout("{Biotin-PEG4″}-CEYDEEFFTALARLRGGDICYYIQAKFAYLPALCIEEILDNLGCS (designed binder, disulfide 1-34, 20-44) [C154]")
9.03
>>> numeric_readout("{Biotin-PEG4″}-CEYDEQFFTALARLRGGDICYYILAKFQYLPQLCIEEILDNLGCS (designed binder, disulfide 1-34, 20-44) [C152]")
9.07
>>> numeric_readout("Ac-CEYDEEFFAGLKRLRGGDICYYIKKKFKKVPDLCIEEILDKLGC-OH (designed binder, disulfide 1-34, 20-44) [C16]")
8.36
>>> numeric_readout("Ac-CEYDEEFFTALKRLRGGDICYYIKKKFKKVPKLCIEEILDKLGC-OH (designed binder, disulfide 1-34, 20-44) [C57]")
9.54
>>> numeric_readout("{Biotin-PEG4″}-CDYDEEFFTALKRLRGDDICSYIQASFQYLPGLCIEEILDNLGCS-OH (designed binder, disulfide 1-34, 20-44) [C192]")
8.89
